Test system: UMUC-3 human bladder transitional cell carcinoma cells
Assay: In vitro antiproliferative assay, UMUC-3
Assay type: cell-based
Details: Homo sapiens, UMUC3; UMUC-3; read-out: IC50 ± SD, antiproliferative activity
assay.metric: pIC50
Hey, just a heads up that pIC50 is the negative log base 10 of the concentration in molar.

[Q] Would you kindly share the measured pIC50 for Cc1cc(C)cc(Nc2nc(CCN3C(=O)c4ccccc4C3=O)cs2)c1 ?
[A] 4.18

[Q] Follow-up entry: O=C1c2ccccc2C(=O)N1CCc1csc(Nc2ccc(Cl)cc2)n1
[A] 4.21

[Q] Item: COc1cc(Nc2nc(CCN3C(=O)c4ccccc4C3=O)cs2)cc(OC)c1OC
[A] 4.34

[Q] Then what about the compound O=C1c2ccccc2C(=O)N1CCc1csc(Nc2c(Cl)cc(Cl)cc2Cl)n1 ?
[A] 3.92

[Q] Let us now turn to O=C1c2ccccc2C(=O)N1CCc1csc(Nc2ccc(C(F)(F)F)cc2)n1
[A] 4.12

[Q] Subsequent entry: O=C1c2ccccc2C(=O)N1CCc1csc(Nc2cccc3ccccc23)n1
[A] 4.10

[Q] Do the same for O=C1c2ccccc2C(=O)N1CCc1csc(Nc2ccc(F)cc2)n1 please
[A] 4.08

[Q] Try this compound too: CC(=O)c1ccc(Nc2nc(CCN3C(=O)c4ccccc4C3=O)cs2)cc1
[A] 4.13

[Q] Repeat for the following compound: NS(=O)(=O)c1ccc(Nc2nc(CCN3C(=O)c4ccccc4C3=O)cs2)cc1
[A] 4.70

---

Kindly supply the reported melting point values for the records listed here.

[Q] Any idea what its melting point is? The compound is O=C1c2ccccc2C(=O)N1CCc1csc(Nc2cccc3ccccc23)n1
[A] 161 to 162 °C

[Q] Same question for NS(=O)(=O)c1ccc(Nc2nc(CCN3C(=O)c4ccccc4C3=O)cs2)cc1 please.
[A] > 260 °C

[Q] Ok, now O=C1c2ccccc2C(=O)N1CCc1csc(Nc2ccc(C(F)(F)F)cc2)n1
[A] 170 to 172 °C

[Q] Next record, please: O=C1c2ccccc2C(=O)N1CCc1csc(Nc2c(Cl)cc(Cl)cc2Cl)n1
[A] 168 to 169 °C

---

System: A549 lung carcinoma cells
Assay: In vitro antiproliferative assay, A549
Type: cell-based, human
Conditions: A549; read-out: IC50 ± SD, antiproliferative activity
assay.metric: IC50 (µM)
Supply the numeric figure in µM, leaving out any unit text.

[Q] What reported IC50 corresponds to N.N.[Cl][Pt][Cl] [cisplatin, reference compound] on A549 lung carcinoma cells?
[A] 5.41

---

Molecular target: human neutrophil elastase (HNE) (Homo sapiens, UniProt P08246)
Sequence (P08246 30-267): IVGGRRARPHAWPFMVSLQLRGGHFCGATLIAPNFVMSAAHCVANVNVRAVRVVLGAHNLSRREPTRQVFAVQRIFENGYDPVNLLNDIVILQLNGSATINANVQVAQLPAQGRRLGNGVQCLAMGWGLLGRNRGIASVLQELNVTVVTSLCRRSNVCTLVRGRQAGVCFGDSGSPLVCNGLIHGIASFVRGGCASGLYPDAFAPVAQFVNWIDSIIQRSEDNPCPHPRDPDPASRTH
Experiment: Kinetic analysis of the inhibition of elastase (Lineweaver–Burk, secondary plots)
Conditions: inhibitor binding with free enzyme, secondary plot
assay.metric: Ki

[Q] What value of measured Ki is listed for O=C1c2ccccc2C(=O)N1CCc1csc(Nc2ccc(C(F)(F)F)cc2)n1 [Compound 4c] ?
[A] 4.54 µM
